System: CCRIS mutagenicity, Ames/micronucleus/aberration tests
ASSAY_PROCEDURE: CCRIS mutagenicity studies
STUDY_CONDITIONS: Test System: AMES SALMONELLA TYPHIMURIUM; Strain/Indicator: TA98; Metabolic Activation: NONE; Method: PREINCUBATION
Active and inactive are the calls of the source. No rule for the calls is given here.
Field 'call' accepts TRUE (active), FALSE (inactive)

Exam item: Returns: the outcome recorded for O=C1NC(=O)c2cc([N+](=O)[O-])ccc21 in this assay.
Marked response: TRUE

Exam item: Returns: the outcome recorded for N#CCc1ccccc1[N+](=O)[O-] in this assay.
Marked response: TRUE

Exam item: Returns: the outcome recorded for CCCCCCCCCCCCCCCC(=O)O in this assay.
Marked response: FALSE

Exam item: Returns: the outcome recorded for Cc1cc(C(C)(C)C)c(O)c(C(C)(C)C)c1 in this assay.
Marked response: FALSE

Exam item: Returns: the outcome recorded for O=[N+]([O-])c1ccc(Nc2ccc(Nc3ccccc3)c(S(=O)(=O)O)c2)c([N+](=O)[O-])c1 in this assay.
Marked response: TRUE

Exam item: Returns: the outcome recorded for Cc1ccc(N)cc1C in this assay.
Marked response: FALSE

Exam item: Returns: the outcome recorded for O=C(O)/C=C/c1ccccc1[N+](=O)[O-] in this assay.
Marked response: FALSE

Exam item: Returns: the outcome recorded for OB(O)O in this assay.
Marked response: FALSE

Exam item: Returns: the outcome recorded for N#C[S-].N#C[S-].N#C[S-].N#C[S-].N#C[S-].N#C[S-].[K+].[K+].[Pt+4] in this assay.
Marked response: FALSE

Exam item: Returns: the outcome recorded for CCOC(=O)[C@H](CCc1ccccc1)N[C@@H](C)C(=O)N1[C@H](C(=O)O)C[C@H]2CCCC[C@@H]21 in this assay.
Marked response: FALSE

Exam item: Returns: the outcome recorded for O[C@H]1[C@H]2O[C@H]2c2c(ccc3cc4ccc5ccccc5c4nc23)[C@@H]1O in this assay.
Marked response: TRUE

Exam item: Returns: the outcome recorded for CCOP(=S)(OCC)OP(=S)(OCC)OCC in this assay.
Marked response: FALSE

Exam item: Returns: the outcome recorded for C=CCNCC=C in this assay.
Marked response: FALSE

Exam item: Returns: the outcome recorded for Nc1cc(Cl)ccc1[N+](=O)[O-] in this assay.
Marked response: TRUE

Exam item: Returns: the outcome recorded for c1cc2c3c(c4c(ccc5ccccc54)cc3c1)[C@H]1O[C@@H]21 in this assay.
Marked response: TRUE

Exam item: Returns: the outcome recorded for CC[N+](=O)[O-] in this assay.
Marked response: FALSE

Exam item: Returns: the outcome recorded for COC(=O)c1ccccc1N in this assay.
Marked response: FALSE

Exam item: Returns: the outcome recorded for C1CN2CCN1CC2 in this assay.
Marked response: FALSE

Exam item: Returns: the outcome recorded for O[C@H]1c2cccc3ccc4cccc(c4c23)[C@@H]1O in this assay.
Marked response: FALSE

Exam item: Returns: the outcome recorded for CC(=O)c1cc(NC(N)=O)ccc1OCC(O)CNC(C)(C)C (stereo not drawn) in this assay.
Marked response: FALSE

Exam item: Returns: the outcome recorded for ClC(Cl)c1ccccc1 in this assay.
Marked response: TRUE

Exam item: Returns: the outcome recorded for O=C(O)CO.[NH2-].[NH2-].[Pt+2] in this assay.
Marked response: TRUE

Exam item: Returns: the outcome recorded for Cc1cc2ccccc2c2ccc3c(c12)C=CC(=O)C3=O in this assay.
Marked response: FALSE

Exam item: Returns: the outcome recorded for CCOP(=S)(OCC)Oc1nc(Cl)n(C(C)C)n1 in this assay.
Marked response: TRUE

Exam item: Returns: the outcome recorded for N in this assay.
Marked response: FALSE

Exam item: Returns: the outcome recorded for CCCCOC(=O)c1ccccc1C(=O)OCCCC in this assay.
Marked response: FALSE

Exam item: Returns: the outcome recorded for Cc1ccccc1Cl in this assay.
Marked response: FALSE

Exam item: Returns: the outcome recorded for O=C1OC2(c3ccccc31)c1cc(I)c(O)c(I)c1Oc1c2cc(I)c(O)c1I in this assay.
Marked response: FALSE

###

Test system: CCRIS mutagenicity, Ames/micronucleus/aberration tests
ASSAY_PROCEDURE: CCRIS mutagenicity studies
STUDY_CONDITIONS: Test System: AMES SALMONELLA TYPHIMURIUM; Strain/Indicator: TA100; Metabolic Activation: NONE; Method: PREINCUBATION
Calls of active or inactive are those of the source. The rule behind the calls is not given here.
Field 'call' accepts active, inactive

Exam item: Returns: the outcome recorded for CC(=O)c1ccncc1 in this assay.
Marked response: inactive

Exam item: Returns: the outcome recorded for Cc1cccc(C)c1NO in this assay.
Marked response: active

Exam item: Returns: the outcome recorded for c1ccc2c(CC3CO3)cccc2c1 (stereo not given) in this assay.
Marked response: active

Exam item: Returns: the outcome recorded for O=c1n(CC2CO2)c(=O)n(CC2CO2)c(=O)n1CC1CO1 (stereo not given) in this assay.
Marked response: active

Exam item: Returns: the outcome recorded for O.[Cu].[Cu] in this assay.
Marked response: inactive

Exam item: Returns: the outcome recorded for O[C@H]1[C@@H]2O[C@@H]2c2c(ccc3cc4c(ccc5ccccc54)nc23)[C@@H]1O in this assay.
Marked response: active

Exam item: Returns: the outcome recorded for CS in this assay.
Marked response: inactive

Exam item: Returns: the outcome recorded for O=Cc1cccc(Cl)c1 in this assay.
Marked response: inactive

Exam item: Returns: the outcome recorded for CCCCCCCCCCCCC/C([O-])=N/[N+](C)(C)CC(C)O (stereo not given) in this assay.
Marked response: inactive

Exam item: Returns: the outcome recorded for OO in this assay.
Marked response: inactive

Exam item: Returns: the outcome recorded for N#C[S-].N#C[S-].N#C[S-].N#C[S-].N#C[S-].N#C[S-].[K+].[K+].[Pt+4] in this assay.
Marked response: inactive

Exam item: Returns: the outcome recorded for Clc1cccc(Cl)c1 in this assay.
Marked response: inactive

Exam item: Returns: the outcome recorded for OB(O)O in this assay.
Marked response: inactive

Exam item: Returns: the outcome recorded for CC(=O)CC(=O)Nc1ccccc1 in this assay.
Marked response: inactive

Exam item: Returns: the outcome recorded for CC(=O)OC(C)CN(CC(C)OC(C)=O)N=O (stereo not given) in this assay.
Marked response: inactive

Exam item: Returns: the outcome recorded for Nc1cccc2cccnc12 in this assay.
Marked response: active

Exam item: Returns: the outcome recorded for COCC12OOC1(C)c1ccccc1O2 (stereo not given) in this assay.
Marked response: active

Exam item: Returns: the outcome recorded for CO in this assay.
Marked response: inactive

Exam item: Returns: the outcome recorded for COC(=O)c1ccccc1N in this assay.
Marked response: inactive

Exam item: Returns: the outcome recorded for Nc1ccc(Cl)cc1Cl in this assay.
Marked response: inactive

Exam item: Returns: the outcome recorded for COc1cc(-c2ccc(N/N=C3/C(=O)c4c(N)cc(S(=O)(=O)O)cc4C=C3S(=O)(=O)O)c(OC)c2)ccc1N/N=C1/C(=O)c2c(N)cc(S(=O)(=O)O)cc2C=C1S(=O)(=O)O in this assay.
Marked response: inactive

Exam item: Returns: the outcome recorded for Cc1cc2c(C)c3ccccc3nc2c2ccccc12 in this assay.
Marked response: active

Exam item: Returns: the outcome recorded for Cc1ccccc1Cl in this assay.
Marked response: inactive

Exam item: Returns: the outcome recorded for Nc1ccc(/C=C/C(=O)O)cc1 in this assay.
Marked response: inactive

Exam item: Returns: the outcome recorded for CN(Cc1cnc2nc(N)nc(N)c2n1)c1c(Cl)cc(C(=O)N[C@@H](CCC(=O)O)C(=O)O)cc1Cl in this assay.
Marked response: inactive

Exam item: Returns: the outcome recorded for CC(O)CN(CC(O)CO)N=O (stereo not given) in this assay.
Marked response: inactive

Exam item: Returns: the outcome recorded for Cc1cnc(C)c(C)n1 in this assay.
Marked response: inactive

Exam item: Returns: the outcome recorded for CC(C)(C)OCC1CO1 (stereo not given) in this assay.
Marked response: active

Exam item: Returns: the outcome recorded for O=[N+]([O-])c1cc(CCl)cc([N+](=O)[O-])c1 in this assay.
Marked response: active

Exam item: Returns: the outcome recorded for O.O.O=N[O-].O=N[O-].O=N[O-].O=N[O-].[K+].[K+].[Pt] in this assay.
Marked response: inactive

###

Tested on: CCRIS mutagenicity, Ames/micronucleus/aberration tests
ASSAY_PROCEDURE: CCRIS mutagenicity studies
STUDY_CONDITIONS: Test System: AMES SALMONELLA TYPHIMURIUM; Strain/Indicator: TA98; Metabolic Activation: NONE; Method: PREINCUBATION
Active and inactive are the calls of the source. The rule behind the calls is not given here.
Field 'call' accepts T = active, F = inactive

Exam item: Returns: the outcome recorded for O=C1c2ccccc2C(=O)c2c1ccc(O)c2O in this assay.
Marked response: F

Exam item: Returns: the outcome recorded for O=Cc1c(Cl)cccc1Cl in this assay.
Marked response: F

Exam item: Returns: the outcome recorded for O=[N+]([O-])c1ccc(Cl)cc1Cl in this assay.
Marked response: F

Exam item: Returns: the outcome recorded for CCOCc1c(O)cc2c(c1O)C(=O)c1ccccc1C2=O in this assay.
Marked response: T

Exam item: Returns: the outcome recorded for CC(=O)c1ccncc1 in this assay.
Marked response: F

Exam item: Returns: the outcome recorded for CC(=O)O[C@H]1[C@H]2O[C@H]2C2=CC(=O)[C@]3(C[C@]2(C)[C@H]1C)O[C@]3(C)C=O in this assay.
Marked response: T

Exam item: Returns: the outcome recorded for COc1c(CO)c(O)cc2c1C(=O)c1ccccc1C2=O in this assay.
Marked response: F

Exam item: Returns: the outcome recorded for OC[C@@H](O)CCl in this assay.
Marked response: F

Exam item: Returns: the outcome recorded for CC(=O)OC1CC(C)OC(C)O1 (stereo not drawn) in this assay.
Marked response: F

Exam item: Returns: the outcome recorded for CC(C)(C)OOC(C)(C)CCC(C)(C)OOC(C)(C)C in this assay.
Marked response: F

Exam item: Returns: the outcome recorded for O=[N+]([O-])c1ccc(-[n+]2nc(-c3ccccc3)nn2-c2ccc(I)cc2)cc1 in this assay.
Marked response: F

Exam item: Returns: the outcome recorded for C=CCOC(=O)C=C in this assay.
Marked response: F

Exam item: Returns: the outcome recorded for Nc1cc([N+](=O)[O-])cc(S(=O)(=O)O)c1O in this assay.
Marked response: F
